Target: Aldo-keto reductase family 1 member B1 (Bos taurus)
Assay: Inhibition of bovine lens aldose reductase at 25 uM
endpoint-label: inhibition (%)

1) O=C1S/C(=C\c2ccc(-c3ccccc3)cc2)C(=O)N1CC(=O)C(F)(F)F | 45
2) O=C1S/C(=C\c2cccc3ccccc23)C(=O)N1CC(O)(O)C(F)(F)F | 52
3) O=C1S/C(=C\c2ccc3ccccc3c2)C(=O)N1CC(=O)C(F)(F)F | 59
4) O=C1S/C(=C\c2ccc3ccccc3c2)C(=O)N1CC(O)(O)C(F)(F)F | 59
5) O=C1S/C(=C\c2ccc(-c3ccccc3)cc2)C(=O)N1CC(O)(O)C(F)(F)F | 45
6) O=C1S/C(=C\c2cccc(Oc3ccccc3)c2)C(=O)N1CC(O)(O)C(F)(F)F | 64
7) O=C1S/C(=C\c2cccc3ccccc23)C(=O)N1CC(=O)C(F)(F)F | 52
8) O=C1S/C(=C\c2cccc(Oc3ccccc3)c2)C(=O)N1CC(=O)C(F)(F)F | 64
